// self-cleavage lookup, one value per entry
B1: CPEB3 Ribozyme (parent)
chain: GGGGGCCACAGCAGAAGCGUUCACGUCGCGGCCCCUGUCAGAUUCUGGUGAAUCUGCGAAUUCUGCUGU

Variants of: B1
Test: self-cleavage, relative activity (ratio to wild type); higher = more cleavage; co-transcriptional

Recorded results for 4 variants are shown here.
G1C G58U = 0.248
G48A C63A = 0.932
G3U C54G = 0.0746
G37C U46C = 0.174

Incoming: What value of measured self-cleavage is listed for G25U C54A ?
Outgoing: 0.125

Incoming: Now give it for G1A G65A too.
Outgoing: 0.0429

Incoming: Input G11C C27A
Outgoing: 0.177
